Protocol: growth of efflux-deficient E. coli DRC39 – strain DRC39, OD650, 24 h, E. coli filamentation inducers, primary screen (AID 1178);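 further: growth measured as culture turbidity by optical density at 650 nm; test concentration not given here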
Test conditions: E. coli DRC39 acrAB, higher = more signal, called active from +8 up or from −8 down
Classification field: TRUE = z-score at or over 0.1; FALSE = z-score under 0.1.

Recorded results for 5 compounds are shown here.
1) CC(C)N1C(=O)C[C@@](C(=O)NC2CC2)(c2ccc([N+](=O)[O-])cc2)[C@H]1c1ccc(CO)cc1 | TRUE
2) CCOC(=O)C1=CC[C@@H](c2ccccc2F)N(S(=O)(=O)c2ccc(C)cc2)[C@H]1c1ccccc1 | FALSE
3) C=CCNC(=O)[C@@H]1[C@H]2C(=O)O[C@H](c3ccccc3)[C@H](c3ccccc3)N2[C@H](c2ccccc2OCCO)[C@@]12C(=O)Nc1ccc(C#CCC(C(=O)OC)C(=O)OC)cc12 | TRUE
4) C=CCOC(=O)[C@@]1(Cc2ccccc2)C[C@H]2CO[C@H](c3ccc(OC)cc3)N2C1=O | FALSE
5) CN(C)CCCCCCNC(=O)[C@@H]1C[C@@H]2C(=O)N3CCC[C@H]3C(=O)N2[C@@H]1c1cccc(OCCO)c1 | FALSE

Task: Is the recorded value of z-score equal to or greater than 0.1 for this compound? C=CC[C@@H](OC(=O)Nc1ccc(SC)cc1)c1ccc(O)c(F)c1
Result: TRUE

###

Protocol: JC-1 mitochondrial signal, unstimulated HepG2 cells – cell-based, JC-1 fluorescence, 24 h, 100 nL compound, profiling panel (AID 1167); further: test concentration not given here
Test conditions: HepG2 mitochondrial potential, higher = more signal
Classification field: 1.0 = z-score at or over -0.2; 0.0 = z-score under -0.2.

1. COCC(=C=CC[C@H](O)c1ccc(CO)o1)CCO | 0.0
2. COc1cc2c(cc1O)C(c1cccs1)N(Cc1cc3c(cc1Br)OCO3)CC2 (stereo unspecified) | 0.0
3. C=C(COC)C(=O)CC[C@@H](OC(C)=O)c1cccc(OCCO)c1 | 1.0

Task: Is the recorded value of z-score equal to or greater than -0.2 for this compound? COc1ccc(CCNC(=O)[C@@H]2c3ccccc3C(=O)N(C3CCCCC3)[C@H]2c2ccc(CO)cc2)cc1
Result: 1.0

Task: Is the recorded value of z-score equal to or greater than -0.2 for this compound? C=C(/C(=C/C[C@H](OC(=O)c1ccncc1)c1ccc(CO)o1)c1cnc2ccccc2c1)C(C)C
Result: 0.0

Task: Is the recorded value of z-score equal to or greater than -0.2 for this compound? CC(C)C[C@@H]1NC(=O)[C@@H]2C[C@H](C(=O)NCCCCCCN)[C@H](c3cccc(OCCO)c3)N2C1=O
Result: 0.0

###

Protocol: S. pombe growth modifiers, basal conditions – strain 972, OD600, 24 h, no modulator, primary screen (AID 1090);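 further: basal condition with compound alone and no growth modifier present; test concentration not given here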
Test conditions: S. pombe 972 growth, higher = more signal, called active from +8 up or from −8 down
Activity calls are given as the source filed them.
Task for the reader: assign each of the following molecules its reported z-score.

1. CC(C)N1C(=O)C[C@@](C(=O)NC2CC2)(c2ccc([N+](=O)[O-])cc2)[C@H]1c1ccc(CO)cc1 | -1.08 (inactive)
2. C=CC[C@@]1(C(=O)NCCCOC)N=C(c2ccc(OCCCO)cc2)O[C@@H]1c1ccccc1N=[N+]=[N-] | 0.561 (inactive)

Please turn your attention to the following entry.
Lab note: O=C1[C@H]2C=C(I)[C@H](C[C@@H]2OCCOCCO)[C@@]12CO2 gave z-score of -0.342 (inactive)

###

Task for the reader: assign each of the following compounds its reported composite z-score.
Protocol: COS7 lysate on small-molecule microarray, probe aHis, 635 nm (AID 1123);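 further: z-score combines 667nm fluorescence intensity with signal-to-noise per printed compound spot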
Test conditions: COS7 cell lysate, fluorescence, higher = more signal
One number for each entry.

Consider the reported composite z-score for these compounds:
1. CO[C@H]1O[C@H](CO)[C@@H](OC(=O)Nc2ccccc2)[C@H](OC(=O)c2cc3ccccc3[nH]2)[C@H]1OC(=O)c1cc2ccccc2[nH]1 | 0.68
2. COC(=O)[C@@]1(Cc2ccc(OC)cc2)[C@H]2c3cc(C(=O)N4CCCC4)n(CCc4c[nH]c5ccc(O)cc45)c3C[C@H]2CN1C(=O)c1ccccc1 | 2.05
3. [N-]=[N+]=NCc1ccccc1[C@H]1OC(c2ccc(OCCCO)cc2)=N[C@@]1(Cc1ccccc1N=[N+]=[N-])C(=O)NCC(O)CO (stereo partly specified) | 1.8

Please report composite z-score for every entry that follows.
1. COC(=O)[C@@]1(Cc2ccc(F)cc2)[C@H]2c3cc(C(=O)N4CCCC4)n(Cc4ccc(C)c(F)c4F)c3C[C@H]2CN1C(=O)c1ccccc1
2. COC(=O)[C@@]1(Cc2ccc(OC)cc2)[C@H]2c3cc(C(=O)N4CCCC4)n(CCO)c3C[C@H]2CN1C(=O)c1ccccc1
3. O=C1OCCC/C=C\[C@H]2OC34C=CCN(c5ccc6ccccc6c5)C(=O)[C@H]3N(CCO)C(=O)[C@@H]4C12 (stereo partly specified)
4. COCCOC(=O)N1C(=O)[C@@]2(c3cc(C#CCNC(N)=O)ccc31)[C@H](C(N)=O)[C@H]1C(=O)O[C@H](c3ccccc3)[C@H](c3ccccc3)N1[C@@H]2c1ccccc1OCCO
5. O=C(Cc1ccccc1)[C@H]1C2C=CCCC(c3ccccc3)=C2CN1Cc1ccccc1 (stereo partly specified)
6. C=C[C@@H](CO)N(Cc1ccc(OC)cc1)S(=O)(=O)c1ccc(Br)cc1

Result:
0.922
2.46
-0.237
1.4
-0.328
0.31

Please report composite z-score for every entry that follows.
1. CC(CO)N1C(=O)[C@@H]2[C@H]3C(=O)OCC=C[C@H]3OC23C=CCN(Cn2nnc4ccccc42)C(=O)[C@@H]13 (stereo partly specified)
2. COC(=O)C1=CC(CCCO)=CC(c2cccs2)N(Cc2cccc(OC(F)(F)F)c2)C=C1C(=O)OC (stereo unspecified)

Result:
0.523
1.93

###

Protocol: forskolin-driven CRE-LacZ activity in PC12 – cell-based, CRE-LacZ reporter, forskolin-stimulated, primary screen (AID 1146);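 further: PC12 cells with 6xCRE LacZ reporter stimulated by forskolin 10 µM; beta-galactosidase reporter signal reflecting CREB driven transcription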
Test conditions: luminescence, 4.5 h, called active from +8 up or from −8 down
Activity calls are given as the source filed them.
API: response.call in active, inactive

1. COc1cc2c(cc1O)C=[N+](Cc1sc3ccccc3c1Cl)CC2 | inactive
2. COCCOC(=O)N1C(=O)[C@@]2(c3ccccc31)[C@H](c1ccc(O)cc1)N1[C@H](c3ccccc3)[C@H](c3ccccc3)OC(=O)[C@H]1[C@@H]2C(=O)N1CCN(c2ncccn2)CC1 | inactive
3. [N-]=[N+]=Nc1ccccc1[C@H]1OC(c2ccc(OCCCO)cc2)=N[C@@]1(Cc1ccccc1)C(=O)NCCN1CCOCC1 | inactive
4. COCCOC(=O)N1C(=O)[C@@]2(c3cc(C#CC4=CCCCC4)ccc31)[C@H](c1ccccc1OCCO)N1[C@H](c3ccccc3)[C@H](c3ccccc3)OC(=O)[C@H]1[C@@H]2C(=O)N1CCN(c2ncccn2)CC1 | inactive
5. COC(=O)C1=CC(CCCO)=CC(c2ccc(CN3CCCC3)cc2)N(Cc2cccc(OC(F)(F)F)c2)C=C1C(=O)OC (stereo not given) | inactive

Task: What did this assay record as the result for CCOC(=O)C[C@H]1[C@H](OC(=O)c2ccccc2-c2ccccc2)[C@@H](NC(=O)c2ccc3ccccc3n2)c2cc(OCCCO)ccc2N1C(=O)Cc1ccc(OC)cc1 ?
Result: inactive

Task: What did this assay record as the result for C=C(/C(=C/C[C@H](OC(C)=O)c1ccc(CO)o1)c1cnc2ccccc2c1)C(C)C ?
Result: inactive

###

System: Torsin-1A (Homo sapiens)
Protocol: torsin A mutant lysate binding on microarrays – cell lysate, small-molecule microarray, COS7 lysate, 635/667 nm fluorescence, primary screen (AID 1150);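 further: score pools 667 nm emission and signal to noise measuring lysate protein binding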
Test conditions: COS7 hTOR1A mutant lysate, 635 nm fluorescence, higher = more signal
Classification field: Fulfilled = composite z-score at or over 0.3; Not fulfilled = composite z-score under 0.3.

Recorded results for 5 compounds are shown here.
1. CC(C)C(CO)N1C(=O)[C@@H]2[C@H]3C(=O)OCC=C[C@H]3OC23C=CCN(c2ccc(Cl)cc2)C(=O)[C@@H]13 (stereo partly specified) | Not fulfilled
2. Cc1ccc(S[C@]2(C(=O)NCCN3CCOCC3)CC(=O)N(Cc3ccccc3Cl)[C@@H]2c2ccc(CO)cc2I)cc1 | Fulfilled
3. COc1ccc([Si](C)(C)[C@@H]2[C@@H](CC(=O)N(CCO)Cc3ccccc3)O[C@]3(C(=O)N(Cc4cccc(N5CCCCC5=O)c4)c4ccccc43)[C@H]2C)cc1 | Fulfilled
4. C[C@@H]1NC(=O)[C@@H](Cc2ccccc2)NC(=O)[C@@]23C(=O)N[C@@H](Cc4ccccc4)C2[C@H](C)[C@@]2(C)O[C@H]2C3/C=C/C/C=C\CNC1=O (stereo partly specified) | Fulfilled
5. CC(C)N1C(=O)C[C@@](C(=O)NC2CC2)(c2ccc([N+](=O)[O-])cc2)[C@H]1c1ccc(CO)cc1 | Fulfilled

Task: Is the recorded value of composite z-score equal to or greater than 0.3 for this compound? Cc1cc(C)c(C(O)C2C=CC3C(=O)N(c4ccccc4)C(=O)C3N2Nc2ccccc2F)c(C)c1 (stereo unspecified)
Result: Not fulfilled
